- Tested on: HT29
- test-protocol: panel of 60 human tumor cell lines, growth inhibition (Colon Cancer)
- test-settings: HT29; Log10 Concentration −5.0
The threshold is inclusive: Percent Growth of exactly 20% counts as 1.0; values below receive 0.0.

Take a look at these entries with their results.
C=C1C(=O)O[C@H]2[C@H]1CC/C(COC(=O)NC)=C\CC[C@@]1(C)O[C@@H]21 : 1.0
C=C1C(=O)O[C@H]2[C@H]1CC/C(COC(=S)n1ccnc1)=C\CC[C@@]1(C)O[C@@H]21 : 1.0
C=C1C(=O)O[C@H]2[C@H]1CC/C(COC(=O)OCCN(C)C)=C\CC[C@@]1(C)O[C@@H]21 : 1.0
C=C1C(=O)O[C@H]2[C@H]1CC/C(COC(=O)Nc1n[nH]c(SC)n1)=C\CC[C@@]1(C)O[C@@H]21 : 0.0

Please find the next compound below.
Inquiry: Textbook exercise: given the entry C=C1C(=O)O[C@H]2[C@H]1CC/C(COC(=O)CCC(=O)N1CCC(C)CC1)=C\CC[C@@]1(C)O[C@@H]21 , state whether its Percent Growth is greater than or equal to 20%.
Reply text: 0.0
